system: Microsporum; assay: Antifungal activity against Microsporum sp. after 7 days by broth microdilution test; format: functional; conditions: 168 h
Readout: log10(MIC) (log10 of the value in µg/mL)

>  <Compound>
CN(C/C=C/C#CC(C)(C)C)Cc1cccc2ccccc12

>  <log10(MIC)>
-1.12

$$$$
>  <Compound>
CN(Cc1ccc(C(C)(C)C)cc1)Cc1cccc2ccccc12

>  <log10(MIC)>
-0.97

$$$$
>  <Compound>
CCCCCc1cc[n+](CCCCCCCCCCCC[n+]2ccc(CCCCC)cc2)cc1.[Cl-].[Cl-]

>  <log10(MIC)>
0.35

$$$$
>  <Compound>
CCCCCCCCCCCCCCCCOP(=O)([O-])OCC[N+](C)(C)C

>  <log10(MIC)>
-0.12

$$$$
>  <Compound>
CCC(C)n1ncn(-c2ccc(N3CCN(c4ccc(OCC5COC(Cn6cncn6)(c6ccc(Cl)cc6Cl)O5)cc4)CC3)cc2)c1=O (stereo not given)

>  <log10(MIC)>
0.42

$$$$

Values were extracted from ChEMBL document CHEMBL1143819.
